Test system: HCC-2998 colon
Assay: NCI tumour cell line growth inhibition, 48 h
measured attribute: GI50

Let me know recorded GI50 for O=C1c2ccccc2-c2c1c1ccccc1c(=O)n2CCN1CCNCC1 , thanks.
785 nM

Find the measured GI50 of CCCC/C(=C\C1=C(C)C(=O)C(OC)=C(OC)C1=O)C(=O)O and report it.
> 100000 nM

Respond only with GI50 recorded for CC(C)(C)[Si](C)(C)OC1[C@@H](CNC(=O)NC(=O)CCl)O[C@@H](n2cnc3c(N)ncnc32)[C@H]1O[Si](C)(C)C(C)(C)C (some centres undefined)
1610 nM

Retrieve GI50 measured for COc1cc(/C=C\c2cc(OC)c(OC)c(OC)c2)cc(N/C=C\C(=O)c2c[nH]c3ccccc23)c1OC and print it.
3340 nM

* * *

Tested on: OVCAR-4 ovarian
Assay: NCI tumour cell line growth inhibition, 48 h
measured attribute: TGI

# annotated cases, reported TGI shown
CC(=O)O[C@H]1C(=O)[C@@]2(C)[C@H]([C@H](OC(=O)c3ccc(F)cc3)[C@]3(O)C[C@H](OC(=O)[C@H](O)[C@@H](NC(=O)c4ccccc4)c4ccccc4)C(C)=C1C3(C)C)[C@]1(OC(C)=O)CO[C@@H]1C[C@@H]2O	> 25 µM
CC1=NN(C(=O)CC(=O)Nc2ccccc2F)C(=O)C1N=Nc1ccccc1[N+](=O)[O-] (centres undefined)	> 100 µM
O=[N+]([O-])c1cccc(C2=NOC(C3CCCCC3)C2)c1 (centres undefined)	> 100 µM

Then there is this molecule:
Write down the reported TGI (system: OVCAR-4 ovarian) of O=C1NCC(NC(=O)C(F)(F)F)c2c(Br)sc(Br)c21 (centres undefined)
> 100 µM

* * *

Tested on: KM12 colon
Assay: NCI tumour cell line growth inhibition, 48 h
measured attribute: TGI

Solved cases (5 shown):
Oc1[nH]c2ccc(Br)cc2c1N=NC(=S)Nc1ccc(F)cc1	30.5 µM
CCOCN1COCN(C)C1=O	> 100 µM
C/C1=C\CC[C@@]2(C)O[C@@H]2C[C@@H](C2(C)CO2)CC/C(C)=C/CC1 (stereo partly specified)	34.3 µM
CC(C)(C)OC(=O)NCCC(N)=S	> 100 µM
NCCNCC1CCNCC1	> 100 µM

Quote TGI reported for CSc1c(C#N)c(N)n(-c2ccc(C)cc2)c(=O)c1C#N please.
> 100 µM

Name the recorded TGI of the item CCN(CC)CCCNC(=O)c1ccc([N+](=O)[O-])cc1O in your answer.
> 100 µM

In one line, give reported TGI of the entry CC(C)=CCC/C(C)=C/COC(C)(C)C1=CCC(C)CC1 (stereo unspecified) (tested in a mixture with another compound) .
> 100 µM

Give the reported value of TGI for this record: CCN1c2ccccc2-c2c3c1cc(C)cc3c1ccccc1[n+]2CC
1.41 µM

Answer with the recorded TGI of CC(C(=O)N1C(=O)N(C(=O)C(C)C(O)c2ccccc2)C2CCCCC21)C(O)c1ccccc1 (stereo unspecified) only.
> 100 µM

Name the recorded TGI of the item CCOC(=O)NC(=O)c1cn(C(CC)COC(=O)NCCCCCCNC(=O)OCC(CC)n2cc(C(=O)NC(=O)OCC)c(=O)[nH]c2=O)c(=O)[nH]c1=O (stereo unspecified) in your answer.
> 100 µM
